Target: T1, DAGWGNLc (SEQ ID NO: 9) peptide conjugated to bovine serum albumin (human; bovine, UniProt P02769 25-607, N-terminus acetylated; C-terminal Cys conjugated to BSA)
T1 construct: TDP-43 residues 65-71 plus an added C-terminal cysteine; also called Peptide conjugated to bovine serum albumin (BSA)
T1 sequence (P02769 25-607 limits assumed): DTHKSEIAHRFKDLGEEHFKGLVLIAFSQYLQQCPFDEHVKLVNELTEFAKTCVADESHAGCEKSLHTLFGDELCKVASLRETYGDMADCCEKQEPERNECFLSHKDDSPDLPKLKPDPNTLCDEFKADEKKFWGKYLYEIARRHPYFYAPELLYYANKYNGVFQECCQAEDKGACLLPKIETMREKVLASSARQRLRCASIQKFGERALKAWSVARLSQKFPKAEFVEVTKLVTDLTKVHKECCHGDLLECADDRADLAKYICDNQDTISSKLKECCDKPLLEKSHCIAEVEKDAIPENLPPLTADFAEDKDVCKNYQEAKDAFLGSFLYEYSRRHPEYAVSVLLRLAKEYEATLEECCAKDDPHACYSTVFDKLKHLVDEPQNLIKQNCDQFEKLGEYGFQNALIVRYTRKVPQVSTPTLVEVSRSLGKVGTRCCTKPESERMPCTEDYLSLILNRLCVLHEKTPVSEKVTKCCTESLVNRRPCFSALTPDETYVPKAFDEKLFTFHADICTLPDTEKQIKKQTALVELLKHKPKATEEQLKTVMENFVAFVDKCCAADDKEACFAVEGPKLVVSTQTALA
Test: SPR, peptide-BSA immobilized (about 50 RU), antibody injected, Langmuir 1:1 fit
koff by entry:
Quick note: give the figure in s⁻¹, leave out the unit.

Solved cases (4 shown):
Binder: mouse monoclonal antibody 3E8 (antibody, V domains shown, Mouse hybridoma antibody; also called Mouse 3E8) VH: DVKLVESGGGLVKLGGSLKLSCAASGFTFSSYYMSWVRQTPEKRLELVATINSNGGSTYYPDTVKGRITISRDNAKNTLQLQMSSLRSEDTALYYCVRQNYEGAYWGQGTLVTVSA VL: DVLMTQTPLSLPVTLGDQASISCRSSQSIVHSNGNTYLEWYLQKPGQSPKLLIYKVSNRFSGVPDRFSGSGSGTDFTLKISRVEAEDLGVYYCFQSSHVPWTFGGGTKLEIK
Unit symbol: s⁻¹
koff: 0.002
//
Binder: mouse monoclonal antibody 2F7 (antibody, V domains shown, Mouse hybridoma antibody; also called Mouse 2F7) VH: DVKLVESGGGLVKLGGSLKLSCAASGFTFSSYYMSWVRQTPEKRLELVATINSNGGSTYYPDTVKGRITISRDNAKNTLQLQMSSLRSEDTALYYCVRQNYEGAYWGQGTLVTVSA VL: DVLMTQTPLSLPVTLGDQASISCRSSQSIVHSNGNTYLEWYLQKPGQSPKLLIYKVSNRFSGVPDRFSGSGSGTDFTLKISRVEAEDLGVYYCFQSSHVPWTFGGGTKLEIK
Unit symbol: s⁻¹
koff: 0.00176
//
Binder: rabbit monoclonal antibody 17 (17H3-17K3) (antibody, V domains shown, Recombinant; also called Rabbit 17; clone 17) VH: QEQLVESGGGLVQPGASLTLTCTASGFSFSSSYVMCWVRQAPGKGLEWITCSDTGINTWYASWAKGRFTISKTSSTTVTLQMTSLTAADTATYFCARRYTGDTYLGNFNLWGQGTLVTVS VL: AQVLTQTPASVSAAVGGTVTINCQASQSVYKNNYLSWYQQKPGQPPKLLIYKASTLASGVPSRFKGSGSGTQFTLTISDVQCDDAATYYCAGGWRSLNAFGGGTEVVVK
Unit symbol: s⁻¹
koff: 4.32e-05
//
Binder: rabbit monoclonal antibody 1 (1H3-1K3) (antibody, V domains shown, Recombinant; also called Rabbit 1; clone 1) VH: QSVEESGGRLVTPGTPLTLTCTVSGFSLSRYYMTWVRQAPGKGLEYIGVIIPGGTTYYASWAKGRFTISKTSTTVDLRITSPTTEDTATYFCAGGPTGNSHFTLWGQGTLVTVS VL: VMTQTPSSKSVPVGGTVTINCQASESVYNNNHLSWYQQKSGQPPKLLIYEASKLESGVPPRFKGSGSGTQFTLTISDVVCDDAATYYCSGYKRVTTDGIAFGGGTEVVVK
Unit symbol: s⁻¹
koff: 2.5e-05

Request: What does the data say about its koff? Entry: rabbit monoclonal antibody 14 (14H1-14K2) (antibody, V domains shown, Recombinant; also called Rabbit 14; clone 14) VH: QEQLEESGGDLVKPEGSLTLTCTASGFSFSSNYVMCWVRQAPGKGLEWVACIWFAGIVDTTYYATWAKGRFTISKTSSTTVTLQMTSLTAADTATYFCARNPVGSVNLWGQGTLVTVS VL: VMTQTPSSKSVPVGGSVTINCQASESVYSNNRLSWYQQKPGQPPKLLIYYASTLESGVPSRFKGSGFGTHFTLTISGAQCDDAATYYCAGWRGARTDGVDFGGGTEVVVK
Response: 9.04e-06
